ASSAY SYSTEM: PKA (Homo sapiens, UniProt P17612)
MEASUREMENT DESCRIPTION: PKA kinase inhibition, Z'-LYTE FRET assay
Format: biochemical
PROTOCOL CONDITIONS: 20 μM ATP
IC50: recorded values

>>> df
                           molecular_string  recorded_measurement
0  COCCOc1cc2ncc3c(N)nc(-n4cnc(-c5ccccc5)c4)cc3c2cc1OC               > 20 µM
1  COc1cc2c(cc1OCCCN1CCCC1)ncc1c(N)nc(-n3ccnc3)cc12               > 10 µM
2  COc1cc2ncc3c(N)nc(-c4cncc(O)c4)cc3c2cc1OC               > 20 µM
3  COc1cc2ncc3c(N)nc(-c4cncc(OC[C@@H](N)Cc5ccc(OCc6ccccc6)cc5)c4)cc3c2cc1OC               > 10 µM

# evaluate next
Lookup: IC50 / PKA (Homo sapiens, UniProt P17612) / CC(C)(C)OC(=O)N[C@H](COc1cncc(-c2cc3c(cnc4cc(Br)ccc43)c(N)n2)c1)Cc1ccccc1
> 20 µM

----------
ASSAY SYSTEM: PDK-1 (Homo sapiens)
MEASUREMENT DESCRIPTION: PDK-1 kinase inhibition ELISA assay (phosphorylation of His6-tagged SGK1 S422D by PDK-1)
Assay type: biochemical
pIC50: −log10 of the molar value.
ATTRIBUTE MEASURED: pIC50

Look over these answered cases.
>>> df
                           molecular_string  attribute_measured  recorded_measurement
0  COCCOc1cc2ncc3c(N)nc(-c4cccnc4)cc3c2cc1OC               pIC50                  7.37
1  COc1ccc(Nc2cncc(-c3cc4c(cnc5cc(OC)c(OC)cc54)c(N)n3)c2)cc1               pIC50                  6.42
2  COCCNc1cc2c(cnc3cc(OCCOC)c(OC)cc32)c(N)n1               pIC50                  5.13

(1) COc1cc2ncc3c(N)nc(-c4cncc(Nc5ccccc5F)c4)cc3c2cc1OC
(2) COc1ccccc1Nc1cncc(-c2cc3c(cnc4cc(OC)c(OC)cc43)c(N)n2)c1
Lab note: check whether 1 or 2 shows the higher recorded pIC50. Pick one; state its label.
2

(I) COc1cccc(Nc2cncc(-c3cc4c(cnc5cc(OC)c(OC)cc54)c(N)n3)c2)c1
(II) CCOc1cc2ncc3c(N)nc(-c4cccnc4)cc3c2cc1OCC
(III) COc1cc2ncc3c(N)nc(-c4cncc(Nc5ccccc5CCO)c4)cc3c2cc1OC
Ordering: ascending pIC50. Your reply should list the labels following the order given in the request.
I, II, III
(I: 6.36, II: 7.13, III: 7.62)

(a) COCCOc1cc2ncc3c(N)nc(N(C)C)cc3c2cc1OC
(b) COc1cc2ncc3c(N)nc(-c4cncc(Nc5ccccc5CO)c4)cc3c2cc1OC
Lab note: record which item had the higher pIC50, a or b . I would appreciate it if you answered with the label of your choice.
b

----------
ASSAY SYSTEM: PDK-1 (Homo sapiens, UniProt O15530)
Sequence (O15530 1-556): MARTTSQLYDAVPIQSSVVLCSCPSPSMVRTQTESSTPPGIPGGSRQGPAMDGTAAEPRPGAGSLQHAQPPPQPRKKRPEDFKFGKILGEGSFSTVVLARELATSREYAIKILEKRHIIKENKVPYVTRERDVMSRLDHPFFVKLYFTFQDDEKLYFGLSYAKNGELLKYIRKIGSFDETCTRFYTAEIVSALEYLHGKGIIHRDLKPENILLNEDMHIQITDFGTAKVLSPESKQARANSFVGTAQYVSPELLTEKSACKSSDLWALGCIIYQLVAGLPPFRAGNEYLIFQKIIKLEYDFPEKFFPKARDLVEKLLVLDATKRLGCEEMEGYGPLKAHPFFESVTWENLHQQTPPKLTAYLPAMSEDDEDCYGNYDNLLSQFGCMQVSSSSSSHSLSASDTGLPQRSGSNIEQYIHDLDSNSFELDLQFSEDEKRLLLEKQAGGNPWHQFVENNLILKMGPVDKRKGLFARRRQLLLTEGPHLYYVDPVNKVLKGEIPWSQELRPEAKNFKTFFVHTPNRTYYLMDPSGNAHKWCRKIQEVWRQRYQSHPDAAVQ
MEASUREMENT DESCRIPTION: PDK-1 kinase inhibition ELISA assay (phosphorylation of His6-tagged SGK1 S422D by PDK-1)
Type: biochemical
PROTOCOL CONDITIONS: PDK-1 ELISA, Table 11; read-out: Average IC50
pIC50: −log10 of the molar value.
ATTRIBUTE MEASURED: pIC50

Example results:
                           molecular_string  recorded_measurement
0  COc1cc2ncc3c(N)nc(-c4cncc(OCC(=O)c5ccccc5)c4)cc3c2cc1OC                  6.10
1  COc1cc2ncc3c(N)nc(-c4cncc(Nc5cccc(CN)c5)c4)cc3c2cc1OC                  7.57
2  COc1cc2ncc3c(N)nc(-c4cncc(OC[C@@H](N)Cc5cccc(Cl)c5)c4)cc3c2cc1OC                  8.10
3  COc1cc2ncc3c(N)nc(-c4cncc(OC[C@@H](N)CNCC5(c6ccccc6)CCOCC5)c4)cc3c2cc1OC                  7.60
4  COc1cc2ncc3c(N)nc(-c4cncc(Nc5cccc(C(N)=O)c5)c4)cc3c2cc1OC                  7.41

(1) CN(C)CC#Cc1ccc2c(c1)ncc1c(N)nc(-n3ccnc3)cc12
(2) COc1cc2ncc3c(N)nc(-c4cc(F)cc(F)c4)cc3c2cc1OC
Consider 1 and 2 . Which of these has its pIC50 at a higher number? Please reply using the label of the selected record.
1
(1: 6.27, 2: 6.00)
